Attribution: a melting point compilation (Tetko et al.; mined from patent text by program, amines drawn as free bases though some values may be those of a salt)

reported_property: melting point (°C)

{"smiles_structure": "Cc1cc(O)c(SC23CC4CC(CC(C4)C2)C3)c(=O)o1", "reported_property": "melting point", "uom": "°C", "reading": 176}
{"smiles_structure": "COc1ccccc1CNc1ccc2c(-c3noc(C)n3)cccc2n1", "reported_property": "melting point", "uom": "°C", "reading": 122}

----------
Reported melting point values for the following molecules.

{"molecule": "CCCCCCCCCCCCSc1nnn[nH]1", "melting point": "85 to 87 °C"}
{"molecule": "CC(=O)OCc1csc(Nc2ccc(Br)cn2)n1", "melting point": "201 to 202 °C"}
{"molecule": "CCOC(=O)C(C)(Cc1cccnc1)S(=O)(=O)c1ccc(OC)cc1 (stereo unspecified)", "melting point": "58 °C"}
{"molecule": "COc1c(N2C[C@H]3CCOC[C@@]3(N)C2)c(F)cc2c(=O)c(C(=O)O)cn([C@@H]3C[C@@H]3F)c12", "melting point": "132 to 134 °C"}
{"molecule": "CCOC(=O)/C(=N\\OC1CCSC1)c1csc(N)n1 (stereo unspecified)", "melting point": "151 to 152 °C"}
{"molecule": "COC(=O)c1ccc(CN([C@@H](CO)c2ccccc2)S(=O)(=O)c2ccc(Cl)cc2)cc1", "melting point": "104 to 106 °C"}

----------
{"smiles_structure": "CCOC(=O)NC(=S)Nc1ncc(C(F)(F)F)cc1F", "melting point": "99 to 100 °C"}
{"smiles_structure": "Cc1cc(OC(F)(F)F)cc2sc(N)nc12", "melting point": "162 °C"}
{"smiles_structure": "CCCCCCCNCCCCCO", "melting point": "47 to 48 °C"}
{"smiles_structure": "COc1cc(C(=O)N(C(C)C)C2CCCCC2)ccc1Cn1c(CO)nc2cccnc21", "melting point": "124 to 126 °C"}
{"smiles_structure": "COC(=O)CCCc1cc2nc(Cl)ccc2n1S(=O)(=O)c1cccc2cccnc12", "melting point": "64 °C"}
{"smiles_structure": "CS(=O)(=O)NC(=O)COc1ccc(CCCS(=O)(=O)c2ccc(Cl)cc2)cc1NC(=O)c1cccc(OCc2nc3ccccc3s2)c1", "melting point": "153 °C"}
{"smiles_structure": "CN(Cc1ccc(C(=O)O)cc1)c1ccc(Cl)cc1", "melting point": "188 to 191 °C"}
{"smiles_structure": "COc1nc(Cl)cnc1NS(=O)(=O)c1cccc(F)c1Cl", "melting point": "159 to 160 °C"}
{"smiles_structure": "CCn1cc2c(n1)c(N)nc1cc(OCc3ccccc3)ccc12", "melting point": "229 to 230 °C"}
{"smiles_structure": "CC(C)N=CCCC1(C(N)=O)c2ccccc2-c2ccccc21", "melting point": "149 to 155 °C"}

----------
{"molecule": "CN1C(=O)SC(Cc2ccc(NC(=O)/C=C/c3cnn(C)c3-c3ccc(F)cc3)cc2)C1=O (stereo unspecified)", "melting point": "228 to 229 °C"}
{"molecule": "Cc1nn(C)c2nc(N)c(-c3ccc(F)cc3)nc12", "melting point": "208 to 210 °C"}
{"molecule": "Cc1ccc(CC(CC(=O)N2CC3CC=CCC3C2)C(=O)O)cc1 (stereo unspecified)", "melting point": "140 to 141 °C"}
{"molecule": "Cn1nc(-c2c(F)cccc2F)nc1-c1ccc(OCc2ccc(C(F)(F)F)cc2)c(Cl)c1", "melting point": "171 to 177 °C"}
{"molecule": "CC(=O)c1cc(Cl)c(O)c2ncccc12", "melting point": "163 to 166 °C"}
{"molecule": "N#Cc1nn(-c2c(Cl)cc(C(F)(F)F)cc2Cl)c(N)c1-c1ccccc1F", "melting point": "197 °C"}
{"molecule": "O=C(Nc1cccc(C(F)(F)F)c1)Nc1ccc(OCc2ccccc2)cc1O", "melting point": "184 to 185 °C"}
{"molecule": "CCC(C)C1Sc2ccccc2NC1=O (stereo unspecified)", "melting point": "99 to 100 °C"}
{"molecule": "Cc1oc(-c2ccccc2)nc1COc1ccc(CON=C(CCCCC(=O)NS(C)(=O)=O)c2ccccc2)cc1", "melting point": "130 to 132 °C"}
{"molecule": "C=CCCCCc1ccc(C(=O)O)cc1", "melting point": "79 to 82 °C"}
{"molecule": "C#CCSc1nc(=O)n(CC#C)cc1F", "melting point": "135 °C"}
{"molecule": "OCCCCCNc1nccc2cc3c(cc12)OCO3", "melting point": "132 to 134 °C"}
{"molecule": "Oc1cccc(-c2nc3ccccc3s2)c1", "melting point": "110 °C"}
{"molecule": "Nc1cccc(-c2ccc(OCC3CCN3)c3ccccc23)n1 (stereo unspecified)", "melting point": "135 to 150 °C"}
{"molecule": "Cc1ccccc1-n1c(C=Cc2ccccc2F)nc2nccnc2c1=O", "melting point": "> 250 °C"}
{"molecule": "CCOC(=O)c1cn(-c2cnc(Cl)c(N)c2)c2c(Cl)c(F)c(F)cc2c1=O", "melting point": "233 to 236 °C"}
{"molecule": "CCOC(=O)C1=C(C(=O)O)CC(C(=O)O)([N+](=O)[O-])C=C1 (stereo unspecified)", "melting point": "189 to 191 °C"}
{"molecule": "COc1ccc(Cl)cc1-c1c(N)c(=O)[nH]c2ccccc12", "melting point": "248 to 250 °C"}
{"molecule": "CCC1COC(=O)C(=CC(=O)OC)N1 (stereo unspecified)", "melting point": "68 to 70 °C"}
{"molecule": "C=CCOc1ccc(C[C@H](NC(=O)OC(C)(C)C)C(=O)N[C@H](C(=O)N[C@@H](CC=C)C(=O)OC)C(C)C)cc1", "melting point": "106 to 108 °C"}
{"molecule": "CCNc1nc(-n2cc(C(=O)O)c(=O)c3cc(F)c(F)c(Cl)c32)c(F)cc1F", "melting point": "236 to 242 °C"}
